Molecular target: NADPH oxidase 4 (Homo sapiens)
Test: NOX4-dependent H2O2 signal modulators, primary screen, NOX inhibitor project, cell-based, HEK293-NOX4, tetracycline-induced, Amplex Red fluorescence (AID 1160)
Details: 45 min, higher = more signal, called active from +8 up or from −8 down
value_type: z-score
Would you mind answering with just the numeric figure?

[in] Please look up its z-score: `COCCOC(=O)N1C(=O)[C@@]2(c3cc(C#CCNC(N)=O)ccc31)[C@H](C(=O)N1CCN(c3ncccn3)CC1)[C@H]1C(=O)O[C@H](c3ccccc3)[C@H](c3ccccc3)N1[C@@H]2c1ccc(O)cc1`
[out] 0.432

[in] Please look up its z-score: `COc1ccc([Si](C)(C)[C@H]2[C@H](CC(=O)N3CCC[C@H]3CO)O[C@@]3(C(=O)N(C)c4ccccc43)[C@@H]2C)cc1`
[out] 1.46

[in] Please look up its z-score: C=CCC(OC(C)=O)[C@@H]1[C@@H](N(Cc2cccc3ccccc23)C(=O)c2ccc(C)cc2)c2cc(OCCCO)ccc2N1C(=O)Cc1ccc2ccccc2c1 (stereo partly specified)
[out] 1.08

[in] Please look up its z-score: `C[C@]1(C(=O)O)c2ccccc2C(=O)N(Cc2cc(C(F)(F)F)cc(C(F)(F)F)c2)[C@H]1c1ccc(CO)cc1`
[out] 0.0284

[in] Please look up its z-score: `COc1ccc([Si](C)(C)[C@H]2[C@H](CC(=O)N(CCO)Cc3ccccc3)O[C@@]3(C(=O)N(Cc4ccc(N5C(=O)c6cccc7cccc5c67)cc4)c4ccccc43)[C@@H]2C)cc1`
[out] 0.695

[in] Please look up its z-score: `C=CC[C@]1(C(=O)NCCN2CCOCC2)N=C(c2ccc(OCCCO)cc2)O[C@H]1c1ccccc1`
[out] -0.0559
